Test system: CEM cells HIV-1 protection, formazan growth assay
Test: NCI AIDS Antiviral Assay
Conditions: measured here: growth of uninfected CEM cells
Description: The ability of compounds to protect human CEM cells from HIV-1 infection is measured as a screen for new compounds capable of inhibiting the HIV virus. Five concentrations of drug were tested on uninfected and infected cells and cell growth was measured using a soluble formazan assay. […] Compounds that provided at least 50% protection were retested. Compounds that provided at least 50% protection on retest were listed as moderately active. […]
pIC50: −log10 of the molar value. *1 amine or outer side, *2 acyl side, *3 side chain or, on linkers, in order; H or OH if unused. Where a SMILES comes first, the peptide text is derived from it. Bridges are numbered along the chain shown (N, C = ends). [ ]: non-standard residue; d: D form. The star is where a group is joined. Fmoc = O=C(OCC1c2ccccc2-c2ccccc21)*; X2 = O=C(C(CCCCNO[*:3])N[*:1])[*:2]
property_measured: pIC50

>  <compound>
Cc1ccc(-n2cc([Si](C)(C)C)nn2)s1

>  <result_operator>
=

>  <recorded_measurement>
3.91

$$$$
>  <compound>
CCOc1ccccc1NC(=O)C(=O)C(/C(=N/N)C(=O)OC)c1nc2ccc([N+](=O)[O-])cc2[nH]c1=O (stereo unspecified)

>  <result_operator>
<

>  <recorded_measurement>
3.58

$$$$
>  <compound>
N#CC1(C#N)NC(c2cccnc2)C(C#N)(C#N)NC1c1cccnc1 (stereo unspecified)

>  <result_operator>
<

>  <recorded_measurement>
3.70

$$$$
>  <compound>
CCNc1ncnc2c1ncn2C1OC(CO)CC1F (stereo unspecified)

>  <result_operator>
<

>  <recorded_measurement>
3.65

$$$$
>  <compound>
O=C(C[C@H](NC(=O)OCc1ccccc1)C(=O)NC1Cc2ccccc2OC1=O)OCc1ccccc1 (stereo partly specified)

>  <result_operator>
=

>  <recorded_measurement>
4.03

$$$$
>  <compound>
NC(=O)CNC(=O)C1CCCN1C(=O)C1CCCCNOC(=O)CCC(NC(=O)OCC2c3ccccc3-c3ccccc32)C(=O)NC(Cc2c[nH]c3ccccc23)C(=O)N1 (stereo unspecified) (Fmoc-EW[X2]PG-NH2; ester 1-3; configuration not given here)

>  <result_operator>
<

>  <recorded_measurement>
4.00

$$$$
>  <compound>
Cc1nc2ccccc2n(CC2CCCN3CCCC[C@H]23)c1=O (stereo partly specified)

>  <result_operator>
<

>  <recorded_measurement>
3.70

$$$$
>  <compound>
Cc1ccc(-n2c(Cn3nnc(-c4cccnc4)n3)nn(C3OC(COC(=O)c4ccccc4)C(OC(=O)c4ccccc4)C3OC(=O)c3ccccc3)c2=S)cc1C (stereo unspecified)

>  <result_operator>
<

>  <recorded_measurement>
4.00

$$$$
>  <compound>
O=c1cn[nH]c2c(Cl)cccc12

>  <result_operator>
=

>  <recorded_measurement>
3.45

$$$$
>  <compound>
CCOC(=O)c1[nH]c(Br)c(-c2ccc(OC)c(OC)c2)c1Br

>  <result_operator>
=

>  <recorded_measurement>
7.20

$$$$
>  <compound>
O=C(Nc1ccn(C2CCC(CO)O2)c(=O)n1)c1ccccc1 (stereo unspecified)

>  <result_operator>
<

>  <recorded_measurement>
3.70

$$$$
>  <compound>
O=C(O)CCSSCCCCS(=O)O

>  <result_operator>
=

>  <recorded_measurement>
5.69

$$$$
>  <compound>
CCC1(c2cccc(C)c2)Oc2ccccc2-n2cccc2C1=O (stereo unspecified)

>  <result_operator>
=

>  <recorded_measurement>
3.90

$$$$
>  <compound>
CCOC(=O)c1[nH]c(Br)c(-c2ccc(Br)cc2)c1Br

>  <result_operator>
=

>  <recorded_measurement>
6.04

$$$$
>  <compound>
CCOP(=S)(N/N=C1\CC2CCC1C2)OCC (stereo unspecified)

>  <result_operator>
<

>  <recorded_measurement>
3.70

$$$$
>  <compound>
CCCCNC(=O)OCC(COc1ccccc1OC)OC(=O)NCCCC (stereo unspecified)

>  <result_operator>
<

>  <recorded_measurement>
4.18

$$$$
>  <compound>
CCOC(=O)C(=CNC(=S)Nc1ccc(Cl)c(Cl)c1)C(=O)OCC

>  <result_operator>
=

>  <recorded_measurement>
4.46

$$$$
>  <compound>
O=[N+]([O-])c1ccc(OCCC[P+](c2ccccc2)(c2ccccc2)c2ccccc2)c(Cl)c1

>  <result_operator>
=

>  <recorded_measurement>
5.77

$$$$
>  <compound>
COc1ccc(Nc2nc3c(N)cc(C(F)(F)F)cc3nc2-c2ccccc2)cc1OC

>  <result_operator>
<

>  <recorded_measurement>
4.79

$$$$
>  <compound>
Cn1cc(N)cc1C(=O)Nc1cc(C(=O)Nc2cc(S(=O)(=O)O)c3cc(S(=O)(=O)O)cc(S(=O)(=O)O)c3c2)n(C)c1

>  <result_operator>
=

>  <recorded_measurement>
3.47

$$$$
>  <compound>
CC(=O)Oc1c(C)cc2c(c1C)C(C)CN2C(C)=O (stereo unspecified)

>  <result_operator>
<

>  <recorded_measurement>
3.70

$$$$
>  <compound>
NC(CCCCNc1ccn(C2OC(CO)C(O)C2O)c(=O)n1)C(=O)O (stereo unspecified)

>  <result_operator>
=

>  <recorded_measurement>
5.26

$$$$
>  <compound>
COC(=O)C1=CC(=O)C(C(=O)Nc2ccc(OC)cc2)C(c2ccccc2)O1 (stereo unspecified)

>  <result_operator>
<

>  <recorded_measurement>
5.15

$$$$
>  <compound>
COc1ccc(-c2nc(-c3cnccn3)n(COCCO)n2)cc1

>  <result_operator>
<

>  <recorded_measurement>
3.70

$$$$
>  <compound>
Oc1ccc(Nc2nc(Cl)c3[nH]cnc3n2)cc1

>  <result_operator>
=

>  <recorded_measurement>
3.97

$$$$
>  <compound>
O=C1OC2(CC1C1(O)C3CC4CC(C3)CC1C4)C1CC3CC(C1)CC2C3 (stereo unspecified)

>  <result_operator>
=

>  <recorded_measurement>
4.41

$$$$
>  <compound>
Cc1ccc(NC2=CC(=O)C(=O)c3ccccc32)cc1

>  <result_operator>
=

>  <recorded_measurement>
4.69

$$$$
>  <compound>
CC1=C(C(=O)NCCc2ccccc2)CC(C(=O)NCCc2ccccc2)=C(C)N1

>  <result_operator>
=

>  <recorded_measurement>
3.91

$$$$
>  <compound>
CC(=O)NC1(NC(C)=O)C2CC(C1Cc1ccccc1)C(C)(C)C2C (stereo unspecified)

>  <result_operator>
<

>  <recorded_measurement>
3.14

$$$$
>  <compound>
CC(=O)OCC1OC(n2cc(F)c(=O)[nH]c2=O)C(NC(=O)N(CCCl)N=O)C(OC(C)=O)C1OC(C)=O (stereo unspecified)

>  <result_operator>
=

>  <recorded_measurement>
4.18

$$$$
>  <compound>
CSc1ccccc1NC1=NCCO1

>  <result_operator>
<

>  <recorded_measurement>
3.70

$$$$
>  <compound>
c1ccc(Nn2c(CCCCCCCCc3nnc(COc4ccccc4)n3Nc3ccccc3)nnc2COc2ccccc2)cc1

>  <result_operator>
<

>  <recorded_measurement>
5.70

$$$$
>  <compound>
COc1ccc(C2C(Cl)C(=O)N2NC(=O)c2ccccc2O)cc1OC (stereo unspecified)

>  <result_operator>
=

>  <recorded_measurement>
4.38

$$$$
>  <compound>
COc1cc2c(c(OC)c1OC)C(=O)[C@@H]1[C@H]2N1C(=O)NCCCl

>  <result_operator>
=

>  <recorded_measurement>
4.34

$$$$
>  <compound>
CCN(CC)c1ccc2c(c1)Oc1cc(N(CC)CC)ccc1C2c1ccccc1C(=O)O

>  <result_operator>
<

>  <recorded_measurement>
3.70

$$$$
>  <compound>
Cc1ccc2c(c1)[nH]c(=S)n2/C=C(\c1ccccc1)S(=O)Cc1ccccc1 (stereo unspecified)

>  <result_operator>
<

>  <recorded_measurement>
3.70

$$$$
>  <compound>
COC(=O)C1=C(C(=O)OC)SC(=CC#CC=C2SC(C(=O)OC)=C(C(=O)OC)S2)S1

>  <result_operator>
<

>  <recorded_measurement>
5.25

$$$$
>  <compound>
COc1cc(/C=C2/C(=O)N(C(=O)c3ccccc3O)N=C2C)cc(OC)c1OC

>  <result_operator>
=

>  <recorded_measurement>
6.62

$$$$
>  <compound>
CCN(CC)CC(C(=O)Nc1c(C)cccc1C)/C(C)=N\NC(=O)C[N+](C)(C)C (stereo unspecified)

>  <result_operator>
<

>  <recorded_measurement>
4.39

$$$$
>  <compound>
CCOP(=O)(C=C=C(C)C)OCC

>  <result_operator>
<

>  <recorded_measurement>
3.70

$$$$
>  <compound>
O=c1c2ccccc2sc2cccc(NCCCN3CCN(CCCNc4cccc5sc6ccccc6c(=O)c45)CC3)c12

>  <result_operator>
<

>  <recorded_measurement>
4.00

$$$$

* * *

Catalogue of pIC50 values
tested on: CEM cells HIV-1 protection, formazan growth assay; test: NCI AIDS Antiviral Assay; conditions: measured here: growth of uninfected CEM cells
pIC50: −log10 of the molar value.

>  <compound>
O=C(c1ccccc1)N1CCN(C(=S)N(C(=O)c2ccccc2)c2ccccc2)C1=S

>  <result_operator>
=

>  <pIC50>
5.43

$$$$
>  <compound>
CCCCOP(=O)(/C=C/c1ccc([N+](=O)[O-])cc1)OCCCC

>  <result_operator>
<

>  <pIC50>
4.68

$$$$
>  <compound>
CN(C)CCSC1=Nc2ccc(Cl)cc2C(c2ccccc2Cl)N(C)C1 (stereo not given)

>  <result_operator>
=

>  <pIC50>
4.70

$$$$
>  <compound>
O=C1[C@H](Cc2ccccc2)C[C@H]2CO[C@H](c3ccccc3)N12

>  <result_operator>
=

>  <pIC50>
4.41

$$$$
>  <compound>
CN(C)CC1CCCCCCCCCC(CN(C)C)C1=O (stereo not given)

>  <result_operator>
<

>  <pIC50>
5.23

$$$$
>  <compound>
CC1=NN(C(=O)CC(=O)N(C(=O)c2ccccc2)c2ccc(Cl)cc2)C(=O)C1N=Nc1ccc([N+](=O)[O-])cc1 (stereo not given)

>  <result_operator>
<

>  <pIC50>
3.70

$$$$
>  <compound>
CC(=C/c1ccccc1)/C=C1/SC(=S)N(C=C2C(=O)NC(=O)NC2=O)C1=O

>  <result_operator>
=

>  <pIC50>
4.22

$$$$
>  <compound>
O=C(O)C1CSCN1C(=O)c1ccccc1SSc1ccccc1C(=O)N1CSCC1C(=O)O (stereo not given)

>  <result_operator>
<

>  <pIC50>
4.00

$$$$
>  <compound>
COC(=O)c1ccccc1C1CN=NC12Cc1ccc(C)cc1C2=O (stereo not given)

>  <result_operator>
=

>  <pIC50>
4.20

$$$$
>  <compound>
COc1ccccc1NCC(=O)Nn1c(C)nc2ccc(S(=O)(=O)Nc3ccccc3OC)cc2c1=O

>  <result_operator>
=

>  <pIC50>
3.83

$$$$
